# maps each entry to its IC50
Test system: A 172;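 note: growth inhibition of A172 cells, measured with a cell viability readout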
Assay: cells
Format: functional, cell-based, Homo sapiens
Conditions: Homo sapiens, A 172
Description: SANGER: Inhibition of human A172 cell growth in a cell viability assay.
Field format: number, assumed nM, no unit text.

molecule: CCC1=C[C@@H]2CN(C1)Cc1c([nH]c3ccccc13)[C@@](C(=O)OC)(c1cc3c(cc1OC)N(C)[C@H]1[C@@](O)(C(=O)OC)[C@H](OC(C)=O)[C@]4(CC)C=CCN5CC[C@]31[C@@H]54)C2 [VINORELBINE]
value_unit: nM
IC50: 13.9

molecule: CC(=O)O[C@@]12CO[C@@H]1C[C@H](O)[C@@]1(C)C(=O)[C@H](O)C3=C(C)[C@@H](OC(=O)[C@H](O)[C@@H](NC(=O)OC(C)(C)C)c4ccccc4)C[C@@](O)([C@@H](OC(=O)c4ccccc4)[C@H]21)C3(C)C [DOCETAXEL]
value_unit: nM
IC50: 1.63

molecule: COc1ccc(C2=N[C@@H](c3ccc(Cl)cc3)[C@@H](c3ccc(Cl)cc3)N2C(=O)N2CCNC(=O)C2)c(OC(C)C)c1 [NUTLIN-3]
value_unit: nM
IC50: 2680

Moving on to the next molecule.
Briefly, IC50 measured for "CC(=O)O[C@@H]1[C@@H](OC(C)=O)[C@@H](O)[C@H](Oc2c(-c3ccc(O)cc3)oc3cc(O)cc(O)c3c2=O)O[C@H]1C" : 4770

* * *

Test system: DOHH-2;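 note: growth inhibition of human DOHH-2 cells, read out with a cell viability assay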
Test: cells
Format: functional, cell-based
Details: Homo sapiens
Description: SANGER: Inhibition of human DOHH-2 cell growth in a cell viability assay.
pIC50: −log10 of the molar value.
Lab note: anything with pIC50 at or over 6 counts as fulfilled; the rest go in not fulfilled.

Consider the following illustrative entries.
molecule: Cc1cc(Nc2cc(N3CCN(C)CC3)nc(Sc3ccc(NC(=O)C4CC4)cc3)n2)n[nH]1
label_class: fulfilled
--
molecule: C=CCc1cccc(/C=N/NC(=O)CN2CCN(Cc3ccccc3)CC2)c1O
label_class: not fulfilled
--
molecule: CCOc1nc(NC(=O)Cc2cc(OC)ccc2OC)cc(N)c1C#N
label_class: not fulfilled
--
molecule: C=C1C(=O)O[C@@H]2C3O[C@]3(C)CC/C=C(\C)CC[C@@H]12 (some centres not stated)
label_class: not fulfilled
--
molecule: CN1CCN(CCOc2cc(OC3CCOCC3)c3c(Nc4c(Cl)ccc5c4OCO5)ncnc3c2)CC1
label_class: not fulfilled
--
molecule: O=C(/C=C/c1ccccc1)NC(NC(=S)Nc1cccc2cccnc12)C(Cl)(Cl)Cl (configuration not stated)
label_class: not fulfilled

Input: I'd appreciate it if you could say whether CN(Cc1cnc2nc(N)nc(N)c2n1)c1ccc(C(=O)N[C@@H](CCC(=O)O)C(=O)O)cc1 [METHOTREXATE] has pIC50 at least equal to 6.
Output: fulfilled

Input: Hi, just wondering whether "O=C1N=C(NCc2cccs2)S/C1=C\c1ccc2ncccc2c1" shows pIC50 of 6 or higher.
Output: not fulfilled

Input: Given "CC(=O)O[C@@H]1[C@@H](OC(C)=O)[C@@H](O)[C@H](Oc2c(-c3ccc(O)cc3)oc3cc(O)cc(O)c3c2=O)O[C@H]1C" , state whether its pIC50 is at least 6.
Output: not fulfilled

Input: Tell me whether pIC50 is at least 6 here: "COC(=O)CNC(=O)C(=O)OC"
Output: not fulfilled

* * *

System: NCI-H889;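 note: cell growth inhibition of the cell line, read out with a viability assay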
Experiment: cells
Type: functional, cell-based
Conditions: Homo sapiens
Description: SANGER: Inhibition of human NCI-H889 cell growth in a cell viability assay.
measured_endpoint: IC50

Examples with their reported IC50 follow.
compound: Cc1cc([C@@H](C)Nc2ccccc2C(=O)O)c2nc(N3CCOCC3)cc(=O)n2c1 [AZD-6482]
reported: > 5.12 µM
--
compound: CCc1nc(N)nc(N)c1-c1ccc(Cl)cc1 [PYRIMETHAMINE]
reported: > 20 µM
--
compound: C=C1C(=O)O[C@@H]2C3O[C@]3(C)CC/C=C(\C)CC[C@@H]12 (some centres undefined)
reported: > 5 µM
--
compound: O=C(/C=C/c1ccccc1)NC(NC(=S)Nc1cccc2cccnc12)C(Cl)(Cl)Cl (centres undefined) [SALUBRINAL]
reported: > 16 µM
--
compound: CCC(=O)N1CCN(c2ccc(-n3c(=O)ccc4cnc5ccc(-c6cnc7ccccc7c6)cc5c43)cc2C(F)(F)F)CC1 [TORIN1]
reported: > 1.2 µM

For reference, reported IC50 for Cc1cnc(-c2cnc(NCCNc3ccc(C#N)cn3)nc2-c2ccc(Cl)cc2Cl)[nH]1 [LADUVIGLUSIB] stands at > 2.56 µM

IC50 measured on C=CCc1cccc(/C=N/NC(=O)CN2CCN(Cc3ccccc3)CC2)c1O [PAC-1] = > 2.56 µM

get_value(item= Cc1ccc(Nc2nccc(N(C)c3ccc4c(C)n(C)nc4c3)n2)cc1S(N)(=O)=O [PAZOPANIB] , readout=IC50) returns > 8 µM

Recorded result, CC1=C2C[C@H]3[C@@H](CC=C4C[C@@H](O)CC[C@@]43C)[C@@H]2CC[C@]12O[C@@H]1C[C@H](C)CN[C@H]1[C@H]2C [CYCLOPAMINE] , IC50: > 16 µM

* * *

Test system: KS-1
Experiment: cells
Format: functional, cell-based, Homo sapiens
Conditions: Homo sapiens, KS-1
Description: SANGER: Inhibition of human KS-1 cell growth in a cell viability assay.
measured_endpoint: IC50 (nM)
// units = nM; emit number, no label

Entry "CO[C@H]1C[C@@H]2CC[C@@H](C)[C@@](O)(O2)C(=O)C(=O)N2CCCC[C@H]2C(=O)O[C@H]([C@H](C)C[C@@H]2CC[C@@H](O)[C@H](OC)C2)CC(=O)[C@H](C)/C=C(\C)[C@@H](O)[C@@H](OC)C(=O)[C@H](C)C[C@H](C)/C=C/C=C/C=C/1C" — recorded IC50 = 2.45

* * *

System: NCI-H748
Experiment: cells
Format: functional, cell-based
Conditions: Homo sapiens
Description: SANGER: Inhibition of human NCI-H748 cell growth in a cell viability assay.
pIC50: −log10 of the molar value.
measured_endpoint: pIC50

compound: O=C(/C=C/c1ccccc1)NC(NC(=S)Nc1cccc2cccnc12)C(Cl)(Cl)Cl (centres undefined)
assay_target: NCI-H748
pIC50: < 4.80
//
compound: CN(c1ncccc1CNc1nc(Nc2ccc3c(c2)CC(=O)N3)ncc1C(F)(F)F)S(C)(=O)=O
assay_target: NCI-H748;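 note: growth inhibition of NCI-H748 cells, measured by a cell viability assay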
pIC50: < 5.59

// below: pIC50 requested for another compound
"Cc1cc(Nc2cc(N3CCN(C)CC3)nc(Sc3ccc(NC(=O)C4CC4)cc3)n2)n[nH]1" has a reported pIC50 of < 5.70

* * *

System: A704
Experiment: cells
Type: functional, cell-based, Homo sapiens
Settings: Homo sapiens, A704
Description: SANGER: Inhibition of human A704 cell growth in a cell viability assay.
measured_endpoint: IC50

Completed entries (count: 6):
molecule: C[C@]1(O)C[C@@H](c2nc(-c3ccc4ccc(-c5ccccc5)nc4c3)c3c(N)nccn32)C1
IC50: > 2.56 µM

molecule: COc1cc(F)c(F)c(Nc2ccc(I)cc2F)c1NS(=O)(=O)C1(CC(O)CO)CC1 (stereo not given)
IC50: 4.7 µM

molecule: O=C1N=C(NCc2cccs2)S/C1=C\c1ccc2ncccc2c1
IC50: > 5 µM

molecule: CCC1=C[C@@H]2CN(C1)Cc1c([nH]c3ccccc13)[C@@](C(=O)OC)(c1cc3c(cc1OC)N(C)[C@H]1[C@@](O)(C(=O)OC)[C@H](OC(C)=O)[C@]4(CC)C=CCN5CC[C@]31[C@@H]54)C2
IC50: > 0.064 µM

molecule: C=CCc1cccc(/C=N/NC(=O)CN2CCN(Cc3ccccc3)CC2)c1O
IC50: > 2.56 µM

molecule: Nc1ccn([C@@H]2O[C@H](CO)[C@@H](O)[C@@H]2O)c(=O)n1
IC50: > 2 µM

Reported IC50 of "O=c1cc(-c2cccc3c2Sc2ccccc2S3)oc(N2CCOCC2)c1" : > 10 µM

IC50 measured on "Cc1ccc(Nc2nccc(N(C)c3ccc4c(C)n(C)nc4c3)n2)cc1S(N)(=O)=O" = 1.6 µM

IC50 for "COc1ccc(C2=N[C@@H](c3ccc(Cl)cc3)[C@@H](c3ccc(Cl)cc3)N2C(=O)N2CCNC(=O)C2)c(OC(C)C)c1" is > 8 µM

Input "COC(=O)CNC(=O)C(=O)OC" . Output IC50: 1140 µM

* * *

# key: entry, value: pIC50
System: QIMR-WIL
Experiment: cells
Type: functional, cell-based
Details: Homo sapiens
Description: SANGER: Inhibition of human QIMR-WIL cell growth in a cell viability assay.
Scale note: pIC50 = -log10(concentration in M).

mol_smiles: Cn1cncc1[C@@](N)(c1ccc(Cl)cc1)c1ccc2c(c1)c(-c1cccc(Cl)c1)cc(=O)n2C
pIC50: 7.79

Now take the following compound into account.
Record "COc1ccc(C2=N[C@@H](c3ccc(Cl)cc3)[C@@H](c3ccc(Cl)cc3)N2C(=O)N2CCNC(=O)C2)c(OC(C)C)c1" . Reported pIC50: 5.79

* * *

The reader will find reported pIC50 values listed item by item below.
Test system: COLO-684
Test: cells
Format: functional, cell-based
Details: Homo sapiens
Description: SANGER: Inhibition of human COLO-684 cell growth in a cell viability assay.
pIC50: −log10 of the molar value.

Some entries whose results are on file:
compound: CCOc1nc(NC(=O)Cc2cc(OC)ccc2OC)cc(N)c1C#N
assay_target: COLO-684
pIC50: < 5.00
//
compound: CC(=O)O[C@@]12CO[C@@H]1C[C@H](O)[C@@]1(C)C(=O)[C@H](O)C3=C(C)[C@@H](OC(=O)[C@H](O)[C@@H](NC(=O)OC(C)(C)C)c4ccccc4)C[C@@](O)([C@@H](OC(=O)c4ccccc4)[C@H]21)C3(C)C [DOCETAXEL]
assay_target: COLO-684
pIC50: < 8.00
//
compound: CO[C@H]1C[C@@H]2CC[C@@H](C)[C@@](O)(O2)C(=O)C(=O)N2CCCC[C@H]2C(=O)O[C@H]([C@H](C)C[C@@H]2CC[C@@H](O)[C@H](OC)C2)CC(=O)[C@H](C)/C=C(\C)[C@@H](O)[C@@H](OC)C(=O)[C@H](C)C[C@H](C)/C=C/C=C/C=C/1C [SIROLIMUS]
assay_target: COLO-684
pIC50: 7.40
//
compound: O=C(/C=C/c1ccccc1)NC(NC(=S)Nc1cccc2cccnc12)C(Cl)(Cl)Cl (stereo unspecified) [SALUBRINAL]
assay_target: COLO-684
pIC50: < 4.80
//
compound: CCc1nc(N)nc(N)c1-c1ccc(Cl)cc1 [PYRIMETHAMINE]
assay_target: COLO-684
pIC50: 5.17

Okay, next one:
Briefly, pIC50 measured for CC1=C2C[C@H]3[C@@H](CC=C4C[C@@H](O)CC[C@@]43C)[C@@H]2CC[C@]12O[C@@H]1C[C@H](C)CN[C@H]1[C@H]2C [CYCLOPAMINE] : < 4.80
